tested on: embryo/fetal development in pregnant Sprague Dawley rats; details: 6 mpk subcutaneously once every three days, Gestation Days 6-18, pregnant rats
Structures can show the parent of a compound that is named as a salt.
measuredParameter: Rat Embryofetal @6 mpk

compound	studySystem	recordedValue
CO[C@@H]1[C@H](OC(=O)N2CC(OC(=O)N3CCN(CC(F)(F)F)CC3)C2)CC[C@]2(CO2)[C@H]1[C@@]1(C)O[C@@H]1CC=C(C)C	embryo/fetal development in pregnant Sprague Dawley rats	Positive
CO[C@@H]1[C@H](OC(=O)N2CC(OC(=O)N3CCN(C)CC3)C2)CC[C@]2(CO2)[C@H]1[C@@]1(C)O[C@@H]1CC=C(C)C	embryo/fetal development in pregnant Sprague Dawley rats	Positive
CO[C@@H]1[C@H](OC(=O)N2CC(CCN3CCOCC3)C2)CC[C@]2(CO2)[C@H]1[C@@]1(C)O[C@@H]1CC=C(C)C	embryo/fetal development in pregnant Sprague Dawley rats	Negative
CCN(CC)CCC1CN(C(=O)O[C@@H]2CC[C@]3(CO3)[C@@H]([C@@]3(C)O[C@@H]3CC=C(C)C)[C@@H]2OC)C1	embryo/fetal development in pregnant Sprague Dawley rats	Positive
CO[C@@H]1[C@H](OC(=O)/C=C/c2ccc(OCCN(C)C)cc2)CC[C@]2(CO2)[C@H]1[C@@]1(C)O[C@@H]1CC=C(C)C [compound A, reference compound]	embryo/fetal development in pregnant Sprague Dawley rats	Positive

Quick one: Rat Embryofetal @6 mpk of CCN(CC)CCNC(=O)CCC1CN(C(=O)O[C@@H]2CC[C@]3(CO3)[C@@H]([C@@]3(C)O[C@@H]3CC=C(C)C)[C@@H]2OC)C1 [Example 88, formate] ?
Positive

Quick one: Rat Embryofetal @6 mpk of CO[C@@H]1[C@H](OC(=O)N2CC(CCN3CC(C)(O)C3)C2)CC[C@]2(CO2)[C@H]1[C@@]1(C)O[C@@H]1CC=C(C)C [Example 9, formate] ?
Positive

Quick one: Rat Embryofetal @6 mpk of CO[C@@H]1[C@H](OC(=O)N2CC(CCN3CC4C(C3)C4(F)F)C2)CC[C@]2(CO2)[C@H]1[C@@]1(C)O[C@@H]1CC=C(C)C (stereo partly shown) [Example 22, formate] ?
Negative

* * *

system: embryo/fetal development in pregnant Sprague Dawley rats; conditions: 6 mpk subcutaneously once every three days, Gestation Days 6-18, pregnant rats
Counter-ions that a name gives are not always drawn.
measuredParameter: Rat Embryofetal @6 mpk

Here are 4 compounds together with their reported answers.
> print(dat)
                                   compound                               studysystem  recordedvalue
1  CCN(CC)CCCC1CN(C(=O)O[C@@H]2CC[C@]3(CO3)[C@@H]([C@@]3(C)O[C@@H]3CC=C(C)C)[C@@H]2OC)C1 [Example 104]  embryo/fetal development in pregnant Sprague Dawley rats       Positive
2  CO[C@@H]1[C@H](OC(=O)N2CC(CCN3CC(O)C3)C2)CC[C@]2(CO2)[C@H]1[C@@]1(C)O[C@@H]1CC=C(C)C [Example 6, formate]  embryo/fetal development in pregnant Sprague Dawley rats       Positive
3  CNC(=O)OC1CN(C(=O)O[C@@H]2CC[C@]3(CO3)[C@@H]([C@@]3(C)O[C@@H]3CC=C(C)C)[C@@H]2OC)C1 [Example 74]  embryo/fetal development in pregnant Sprague Dawley rats       Negative
4  CO[C@@H]1[C@H](OC(=O)N2CC(CCN3CC(F)(F)C3)C2)CC[C@]2(CO2)[C@H]1[C@@]1(C)O[C@@H]1CC=C(C)C [Example 2]  embryo/fetal development in pregnant Sprague Dawley rats       Negative

Field: next compound
Quick one: Rat Embryofetal @6 mpk of CO[C@@H]1[C@H](OC(=O)N2CC(Cc3ccc(C)nc3)C2)CC[C@]2(CO2)[C@H]1[C@@]1(C)O[C@@H]1CC=C(C)C [Example 101] ?
Positive
